Task for the reader: assign each of the following molecules its reported TGI.
Tested on: NCI-H522 lung
Assay: NCI tumour cell line growth inhibition, 48 h

Look over these answered cases.
# SUBSTANCE SMILES, TEST VALUE
records = [
    ("S=c1[nH]nc(Cn2c3ccc(Br)cc3c3nc4ccccc4nc32)n1C1CCCCC1", "67.4 µM"),
    ("C[n+]1c(-c2ccc(NC(=O)c3ccc(C(=O)Nc4ccc(-c5cn6ccccc6[n+]5C)cc4)cc3)cc2)cn2ccccc21", "> 100 µM"),
]

Pending molecule:
Request: Reported TGI, molecule `CCCO/N=[N+](\[O-])N(CC)CC` : ____
Result: > 100 µM

###

System: COLO 205 colon
Test: NCI tumour cell line growth inhibition, 48 h; in the data active = GI50 below about 0.43 µM; inactive = the rest
Entry note: the call must match one of 1 (yes) = active, 0 (no) = inactive

Known results for compounds:
# SUBSTANCE SMILES, CLASS ASSIGNMENT
data = [
    ("CSc1ccc(C2=Nn3c(nnc3-c3ccc(F)c(Cl)c3)SC2)cc1", "0 (no)"),
    ("CS(=O)(=O)c1ccc(Cl)c([N+](=O)[O-])c1", "0 (no)"),
]

Request: For `CC1(C)N=C(N)N=C(N)N1c1ccc(CCc2ccccc2)c(Cl)c1` , what call appears in the results of this test?
Result: 1 (yes)

###

Kindly state TGI for each of the entries shown.
Test system: NCI-H226 lung
Assay: NCI tumour cell line growth inhibition, 48 h

Examples with their reported TGI follow.
# COMPOUND, TGI
measured = [
    ("CC1(C)O[C@H]2OC3CCC(=O)CC3(O)[C@H]2O1 (stereo partly specified)", "> 100 µM"),
    ("O=C(Sc1c(-c2ccccc2)c(=O)n(-c2ccccc2)c(=S)n1-c1ccccc1)c1ccco1", "> 100 µM"),
    ("Nc1cc2c3c(cccc3c1)NC2=O", "> 100 µM"),
]

Record TGI per entry; entries follow.
1. CC12CC3(C)CC(C)(C1)CC(N=[N+]=[N-])(C2)C3
2. O=C(Nc1ccc(OC(F)(F)F)cc1)c1sccc1NCc1ccnc2ccccc12
3. Cn1cc(C2=C(c3cn(C)c4ccc(N)cc34)C(=O)NC2=O)c2ccccc21

Result:
["> 100 µM", "> 90.6 µM", "> 25 µM"]

###

Please respond with reported TGI for every item in the list.
Tested on: SNB-78 CNS
Assay: NCI tumour cell line growth inhibition, 48 h
Answers are plain numbers, in µM.

# COMPOUND, TGI, µM
rows = [
    ("Fc1cccc(Cl)c1C1SCc2nc3ccccc3n21 (stereo not given)", 73.8),
    ("CC1(C)C(=O)C(O)=CC2C1=CCC1C2(C)C(=O)CC2(C)C(C(C)(O)C(=O)CC(O)C(C)(C)O)C(O)CC12C (stereo not given)", 25.9),
]

Hi, could you look up TGI for each item in my list?
1. Cc1cc(O)c2c(c1)C(O)(c1ccc3c(c1O)C(=O)c1c(O)cc(C)cc1C3(O)C1OC(CO)C(O)C(O)C1O)c1cccc(O)c1C2=O (stereo not given)
2. COc1ccc(C(C2=C(C)C(=O)c3ccccc3C2=O)c2ccc(C(C)C)cc(=O)c2O)cc1 (stereo not given)

Result:
1: 36.1; 2: 35.1

###

Test system: BT-549 breast
Experiment: NCI tumour cell line growth inhibition, 48 h
MEASURED ENDPOINT: GI50

# COMPOUND, TEST VALUE
measured = [
    ("COc1ccc(OC)c(-c2cc(-c3ccccc3)nn2-c2ccc(S(=O)(=O)NC(C)=O)cc2)c1", "16.2 µM"),
    ("COc1cc(/C=C2\\CN(C)CC3=C2Nc2nc(SC)[nH]c(=O)c2C3c2cc(OC)c(OC)c(OC)c2)cc(OC)c1OC (stereo not given)", "2.98 µM"),
    ("CC(=O)c1cccc(N(/C=C/C(=O)C(F)(F)F)CC(=O)c2ccc(Cl)cc2)c1", "> 100 µM"),
    ("O=C1/C(=C/c2ccc(Cl)cc2)CCCc2ccc(F)cc21", "39.8 µM"),
]

// next entry
Request: Given Clc1ccc(COC(Cn2ccnc2)c2ccc(Cl)cc2Cl)cc1 (stereo not given) , state its recorded GI50.
Result: 2.48 µM
